Data provenance is the Deep4Chem optical property database.

# PROCEDURE_DETAILS: solvent given as SMILES
# MEASUREMENT_SETUP: in ClC(Cl)(Cl)Cl

SMILES_ENTRY	fluorescence lifetime / ns
O=C1O[B-]2(OC1=O)OC(c1ccccc1)=CC(c1ccc3ccccc3c1)=[O+]2	1.6
Cc1cc(C#Cc2ccccc2)c2ccc3c(C#Cc4ccccc4)cc(C#Cc4ccccc4)c4ccc1c2c43	1.57
CN(C)c1ccc(/C=C/C=C2\CC/C(=C\c3ccc(N(C)C)cc3)C2=O)cc1	0.29
CC(=O)[B-]1(C(C)=O)OC(C)=CC(c2ccc3ccccc3c2)=[O+]1	1.6
O=C1c2ccccc2C(=O)c2cc(-c3ccc(N(c4ccccc4)c4ccccc4)cc3)ccc21	8.82
COc1ccc2c(=O)c3c([nH]c2c1)-c1ccccc1NC3(C)C	5.08
COc1ccc2c3cccc4c(OC)ccc(c5cccc1c52)c43	3.65
O=C1c2ccc3c4ccc5c6c(ccc(c7ccc(c2c37)C(=O)N1c1ccncc1)c64)C(=O)N(c1ccncc1)C5=O	3.75
CC(=O)[B-]1(C(C)=O)OC(c2ccc3ccccc3c2)=CC(c2ccc3ccccc3c2)=[O+]1	1.1
CC1(C)Nc2cc(Cl)ccc2-c2[nH]c3ccccc3c(=O)c21	4.8
O=C1O[B-]2(OC1=O)OC(c1ccc3ccccc3c1)=CC(c1ccc3ccccc3c1)=[O+]2	1.8
COc1ccc(C2=CC(c3ccc4ccccc4c3)=[O+][B-](C(C)=O)(C(C)=O)O2)cc1	1.2
CC(=O)[B-]1(C(C)=O)OC(c2ccccc2)=CC(c2ccccc2)=[O+]1	2.1
COc1ccc(/C=C/C2=CC(/C=C/c3ccc(OC)cc3)=[O+][B-](F)(F)O2)cc1	0.5
CCCCCCCC(=O)Oc1ccc2c3cccc4c(OC(=O)CCCCCCC)ccc(c5cccc1c52)c43	3.89
CCCCCCCCCCCCCCCCOc1cc(C#Cc2ccc3ccccc3c2)c(OCCCCCCCCCCCCCCCC)cc1C#Cc1ccc(C=C(C#N)C#N)cc1	1.94
CCCCCCCCCCCCCCCCOc1cc(C#Cc2ccc3ccccc3c2-c2c(C#Cc3cc(OCCCCCCCCCCCCCCCC)c(C#Cc4ccc(C=C(C#N)C#N)cc4)cc3OCCCCCCCCCCCCCCCC)ccc3ccccc23)c(OCCCCCCCCCCCCCCCC)cc1C#Cc1ccc(C=C(C#N)C#N)cc1	2.16

---

Catalogue of molecules with associated fluorescence lifetime
# PROCEDURE_DETAILS: solvent given as SMILES
# MEASUREMENT_SETUP: in CC#N

MOLECULE	fluorescence lifetime, ns
C[n+]1ccc(-c2cc[n+](C)cc2)cc1	0.9
CCOC(=O)CN1C(=O)C2=C(c3ccc(C#N)cc3)N(CC(=O)OCC)C(=O)C2=C1c1ccccc1	5.78
COC(=O)[C@@]12N=N[C@@H](C3C[C@H]31)[C@@H]1C[C@@H]12 (some centres undefined)	9.2
Cc1ccc(C2=C3C=C(I)C=[N+]3[B-](F)(F)n3cc(I)cc32)cc1	0.057
C(#Cc1nccnc1C#Cc1ccccc1)c1ccccc1	0.336
COc1ccc(/C=C/c2ccc(-c3ccc(C)cn3)nc2)cc1	0.58
COc1ccc(/C=C/c2ccccc2)cc1	0.04
CN(CC(O)c1cccc(O)c1)c1ccc([N+](=O)[O-])c(C2CC(c3cccc4ccccc34)=NN2c2ccccc2)c1 (centres undefined)	3.95
CCCCCCCCOc1ccc(C2=C3C(C)=C(C#Cc4ccc(B(c5c(C)cc(C)cc5C)c5c(C)cc(C)cc5C)cc4)C(C)=[N+]3[B-](F)(F)n3c(C)c(C#Cc4ccc(B(c5c(C)cc(C)cc5C)c5c(C)cc(C)cc5C)cc4)c(C)c32)cc1	4.37
